- ASSAYED_SYSTEM: T1, human epidermal growth factor receptor 2 (HER2) (human, UniProt P04626 23-1255)
- T1 construct: whole, on cells; One entry for endogenous HER2 on tumor cell lines and for the fully human construct hu-HER2 on CHO-S cells; also called ErbB-2; hu-HER2
- ASSAY_NAME: flow cytometry on A431 cells (low HER2), PE-goat anti-human IgG, MFI; EC50 by non-linear regression (Example 12)
OBSERVABLE: EC50 (µg/mL)

HER2 HuMab 159 (antibody, V domains shown, also called PC1014-159) VH: EVQLVQSGAEVKKPGESLKISCKGSGYNFTSYWIGWVRQMPGKGLEWMGIIYPGDSDTRYSPSFQGQVTISADKSISTAYLQWSSLKASDTAMYYCARWGTYYDILTGYFNWFDPWGQGTLVTVSS VL: DIQMTQSPSSLSASVGDRVTITCRASQGISSWLAWYQQKPEKAPKSLIYAASSLQSGVPSRFSGSGSGTDFTLTISSLQPEDFATYYCQQYYIYPWTFGQGTKVEIK | 0.855

Measured values drawn from patent US20140170149A1 for this set.
